molecular target: Grb2 SH2 (UniProt P62993); experiment: SH2 binding enrichment of the phosphorylated peptide, bacterial display (enrichment ratio); higher = better substrate or ligand; peptides without Tyr show the background
ASSAY ENDPOINT: SH2 binding enrichment

Illustrative cases are given below, each with its answer.
1. FSEVRYMKEPF [HIPK4_Y170_V171M_YF] :: 0.863
2. KGLKVYVNGTL [ADGRD1_Y183_E178K] :: 1.32

[1] CTTIHYNFMRN [TP53_Y234_C238R_YF]
[2] SLLVVYPWTQR [HBB_Y36_R31S]
Problem: Consider 1 and 2 . Which of these has its SH2 binding enrichment at a higher number? Refer to your chosen item by its label in the answer.
Solution: 2

----------
molecular target: Fes (UniProt P07332); test: phosphorylation enrichment, bacterial display (enrichment ratio); higher = better substrate or ligand; peptides without Tyr show the background
Sequence (P07332 whole entry, looked up): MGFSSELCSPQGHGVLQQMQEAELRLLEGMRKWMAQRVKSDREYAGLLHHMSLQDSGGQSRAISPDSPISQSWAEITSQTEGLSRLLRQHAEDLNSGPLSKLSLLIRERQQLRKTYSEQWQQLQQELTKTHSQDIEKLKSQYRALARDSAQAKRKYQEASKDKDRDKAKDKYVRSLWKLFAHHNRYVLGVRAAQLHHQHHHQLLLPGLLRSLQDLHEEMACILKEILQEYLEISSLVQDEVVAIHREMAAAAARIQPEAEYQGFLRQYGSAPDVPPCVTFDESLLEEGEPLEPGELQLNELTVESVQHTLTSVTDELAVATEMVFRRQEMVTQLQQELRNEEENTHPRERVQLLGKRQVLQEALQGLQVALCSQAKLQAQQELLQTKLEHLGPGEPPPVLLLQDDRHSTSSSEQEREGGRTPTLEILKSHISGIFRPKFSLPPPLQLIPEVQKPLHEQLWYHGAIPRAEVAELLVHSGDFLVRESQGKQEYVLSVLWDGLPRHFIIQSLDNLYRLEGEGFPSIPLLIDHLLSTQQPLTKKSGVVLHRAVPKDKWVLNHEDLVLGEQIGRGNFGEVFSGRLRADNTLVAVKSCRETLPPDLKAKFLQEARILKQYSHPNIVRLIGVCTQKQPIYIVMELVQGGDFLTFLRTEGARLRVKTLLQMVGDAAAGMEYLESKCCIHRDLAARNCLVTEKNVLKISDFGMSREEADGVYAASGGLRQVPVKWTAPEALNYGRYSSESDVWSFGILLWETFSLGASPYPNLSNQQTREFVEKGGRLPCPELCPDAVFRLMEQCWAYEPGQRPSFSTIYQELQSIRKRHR
ASSAY ENDPOINT: phosphorylation enrichment
Form: value (number only, do not type unit).

1. VGTKRYMALEV [ACVRL1_Y375_P378L] :: 0.75
2. QFPDIYAREEV [CRX_Y67_V66I_YF] :: 1.91
3. VKANTYEKFWP [GATM_Y100_YF] :: 0.793
4. DAMQTYNGNDE [TSPAN7_Y131] :: 1.11
5. SIKDKHVTALY [KCNH2_Y611_Y611H] :: 0.61

Problem: Provide Fes (UniProt P07332) phosphorylation enrichment reading for SHMVNYQPYRK [TEX37_Y25_D24N] .
Solution: 0.49

Problem: Provide Fes (UniProt P07332) phosphorylation enrichment reading for IDAICYFRMEN [NPHS2_Y194_YF] .
Solution: 1.59

Problem: Provide Fes (UniProt P07332) phosphorylation enrichment reading for NRDNTYNRVSE [FGA_Y127] .
Solution: 0.728

Problem: Provide Fes (UniProt P07332) phosphorylation enrichment reading for TARWEYMHSPS [CPOX_Y429] .
Solution: 2.01

Problem: Provide Fes (UniProt P07332) phosphorylation enrichment reading for FYRNVYHLASV [RBL1_Y796_K794N] .
Solution: 0.635

Problem: Provide Fes (UniProt P07332) phosphorylation enrichment reading for TNIKRYHIAKV [HARS1_Y150] .
Solution: 0.553

Problem: Provide Fes (UniProt P07332) phosphorylation enrichment reading for DPTFGYEDFTR [SESN2_Y323] .
Solution: 1.28

Problem: Provide Fes (UniProt P07332) phosphorylation enrichment reading for EVVGRYSVHYA [MLH1_Y183_N187Y] .
Solution: 1.03

Problem: Provide Fes (UniProt P07332) phosphorylation enrichment reading for KKFPDYIQIAR [SGMS2_Y59_M64R_YF] .
Solution: 0.713

----------
Quick reference: phosphorylation enrichment of the listed items.
system: c-Abl (mouse); assay: phosphorylation enrichment, bacterial display (enrichment ratio); higher = better substrate or ligand; peptides without Tyr show the background
Form: value (number only, do not type unit).

Illustrative cases are given below, each with its answer.
1. AKLDEYIAIAK [RCOR3_Y46] :: 0.621
2. YPKAHYHWLVL [APTX_Y214_R213H] :: 0.846
3. SVVAPYEPPEV [TP53_Y220_V218A] :: 1.08

Problem: Return the recorded phosphorylation enrichment value; entry: CDIPRYIVSQL [MAST2_Y461]
Solution: 0.816

Problem: Return the recorded phosphorylation enrichment value; entry: QKDIFYGLRSL [IGSF10_Y126_T124I]
Solution: 1.03

Problem: Return the recorded phosphorylation enrichment value; entry: IDAICYFRMEN [NPHS2_Y194_YF]
Solution: 0.974

Problem: Return the recorded phosphorylation enrichment value; entry: YMRGMYFRMTD [PLA2G6_Y541_K545T]
Solution: 0.771

Problem: Return the recorded phosphorylation enrichment value; entry: RQNNSYTCYTA [SLC20A2_Y386_R382Q]
Solution: 0.582

Problem: Return the recorded phosphorylation enrichment value; entry: SRDPFYEMLAA [CYTH1_Y382]
Solution: 0.681

Problem: Return the recorded phosphorylation enrichment value; entry: SDMGQYQCLVF [AXL_Y115_T112M]
Solution: 1.57

Problem: Return the recorded phosphorylation enrichment value; entry: LSIQCYLRALD [HMGCS2_Y262]
Solution: 1.98

Problem: Return the recorded phosphorylation enrichment value; entry: QHVPDYRQNVF [PCDHGA1_Y890_YF]
Solution: 0.798

Problem: Return the recorded phosphorylation enrichment value; entry: CEAVEYLESKQ [BTK_Y511_M509V]
Solution: 0.738

Problem: Return the recorded phosphorylation enrichment value; entry: KEAVLYPHLPP [SQSTM1_Y383_A381V]
Solution: 0.798

Problem: Return the recorded phosphorylation enrichment value; entry: LERYIYNPEEF [HLA-DPB1_Y59_R61P]
Solution: 1.32

Problem: Return the recorded phosphorylation enrichment value; entry: GGDGSYVSVPS [TNNI3K_Y425]
Solution: 0.487

Problem: Return the recorded phosphorylation enrichment value; entry: AKFPFYEKNKK [FOXL2_Y91]
Solution: 0.545
